Numbers sourced from patent US20240270821A1.

target: human GLP1-R (Homo sapiens, UniProt P43220); assay: GLP1-R internalization assay in HEK293 cells; format: cell-based; conditions: HEK293 cells expressing SNAP-GLP-1R; read-out: GLP1R Internalization EC50
Sequence (P43220 24-463): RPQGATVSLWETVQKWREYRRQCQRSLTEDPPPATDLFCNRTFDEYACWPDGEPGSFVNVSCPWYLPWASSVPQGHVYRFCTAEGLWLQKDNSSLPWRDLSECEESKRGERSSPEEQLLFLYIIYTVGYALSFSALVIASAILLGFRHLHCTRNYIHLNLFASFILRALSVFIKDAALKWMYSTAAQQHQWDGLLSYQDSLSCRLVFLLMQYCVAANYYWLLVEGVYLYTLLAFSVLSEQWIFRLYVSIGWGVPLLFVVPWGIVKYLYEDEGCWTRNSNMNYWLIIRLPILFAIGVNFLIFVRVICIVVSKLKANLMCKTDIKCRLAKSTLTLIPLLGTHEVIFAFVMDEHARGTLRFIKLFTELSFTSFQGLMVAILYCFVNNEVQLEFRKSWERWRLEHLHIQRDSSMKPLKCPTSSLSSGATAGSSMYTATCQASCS
Starred links: 1 amine or outer side, 2 acyl side, 3 side chain; linkers in the order of their positions; H or OH if unused. Non-standard residues stand in square brackets, D forms with d. Groups on a side chain read outwards from the residue. No end group written: not given here. *: point of attachment. C20 diacid = O=C(O)CCCCCCCCCCCCCCCCCCC(=O)*; C18 diacid = O=C(O)CCCCCCCCCCCCCCCCC(=O)*; αMePhe(2-F) = C[C@](N)(Cc1ccccc1F)C(=O)O; γGlu = O=C(O)[C@H](CCC(=O)[*:2])N[*:1]; αMe4Pal = C[C@](N)(Cc1ccncc1)C(=O)O; αMeY = C[C@](N)(Cc1ccc(O)cc1)C(=O)O; 4Pal = N[C@@H](Cc1ccncc1)C(=O)O; αMeL = CC(C)C[C@](C)(N)C(=O)O; Orn = NCCC[C@H](N)C(=O)O; Dab = NCC[C@H](N)C(=O)O; AEEA = NCCOCCOCC(=O)O; Aib = CC(C)(N)C(=O)O
Documented pEC50 across a set of substances
A value of pEC50 is the negative decimal logarithm of a concentration given in moles per litre.

Example substances with recorded pEC50:
Data request: Request: pEC50, test system human GLP1-R (Homo sapiens, UniProt P43220), entry H-Y[Aib]QGTFTSDFS[Orn][αMeL]LDKK([AEEA-γGlu-C18 diacid])AQ[Aib]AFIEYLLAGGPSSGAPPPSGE-NH2 [Example 86]
Data returned: 7.24

Data request: Request: pEC50, test system human GLP1-R (Homo sapiens, UniProt P43220), entry H-Y[Aib]QGTFTSD[4Pal]S[Dab][αMeL]LDKK([AEEA-γGlu-C18 diacid])AQ[Aib]AFIEYLIE[Aib]GESSGAPPPSGS-NH2 [Example 188]
Data returned: 7.35

Data request: Request: pEC50, test system human GLP1-R (Homo sapiens, UniProt P43220), entry H-Y[Aib]QGTFTSDFSK[αMeL]LDKK([AEEA-AEEA-γGlu-C20 diacid])AQ[Aib]AFIEYLLEGGPSSGAPPPGEG-NH2 [Example 17]
Data returned: 7.18

Data request: Request: pEC50, test system human GLP1-R (Homo sapiens, UniProt P43220), entry Y[Aib]QGTFTSDFSK[αMeL]LDKK([AEEA-γGlu-C18 diacid])AQ[Aib]QFIEYLLAGGPSSGEPPPSEG-NH2 [Example 26]
Data returned: 7.02

Data request: Request: pEC50, test system human GLP1-R (Homo sapiens, UniProt P43220), entry H-Y[Aib]QGTFTSDFSK[αMeL]LDKK([AEEA-γGlu-C18 diacid])AQ[Aib]AFIEYLLEGGPSSGAPPPSGS-NH2 [Example 141]
Data returned: 7.02

Continue with the substance presented below.
Data request: Request: pEC50, test system human GLP1-R (Homo sapiens, UniProt P43220), entry H-Y[Aib]QGT[αMePhe(2-F)]TSD[4Pal]SI[αMeL]LD[Orn]K([γGlu-γGlu-C18 diacid])AQ[αMe4Pal][Orn]FI[dE][αMeY]LIEGGPSSGEPPPETE-NH2 [Example 686]
Data returned: 7.48
